Data credit: ChEMBL document CHEMBL1131263

I'd be grateful if you could share measured Efficacy for these entries.
- System: Mus musculus
- assay details: In vivo lowering of blood glucose levels in diabetic obese ob/ob mice by measuring postprandial blood glucose level on day1 after 4 hours at 300 uM/kg oral dose
- Type: functional

Below, 5 compounds whose answers are already recorded.
O=C1CC[C@]2(c3ccc4ccccc4c3)O[C@@H](COc3ccc(Cl)cc3)CN12: -11%
O=C1CC[C@]2(c3ccc(Cl)c(Cl)c3)OC(COc3ccc(Cl)cc3)CN12 (stereo partly specified): 36%
COc1ccc(OC[C@@H]2CN3C(=O)CC[C@]3(c3ccc(Cl)cc3)O2)cc1: -20%
O=C1CC[C@]2(c3ccccc3)O[C@H](COc3ccc(Cl)cc3)CN12: 45%
OCc1cc(-c2ccc(Oc3ccccc3)cc2)no1: 15%

Hey, can you go through the list below and give me Efficacy for every item?
1. CC(C)(O)c1cc(-c2ccc(Oc3ccccc3)cc2)no1
2. O=C1CC[C@]2(c3ccc(Cl)cc3)S[C@H](COc3ccc(Cl)cc3)CN12

["-2%", "14%"]

For each listed entry, give its Efficacy.
1. CC(C)C(=O)N1C[C@H](COc2ccc(Cl)cc2)O[C@@H]1c1ccc(Cl)c(Cl)c1
2. O=C1CC[C@]2(c3ccc4ccccc4c3)O[C@H](COc3ccc(Cl)cc3)CN12
3. O=C1CC[C@]2(c3ccc4oc5ccccc5c4c3)O[C@H](COc3ccc(Cl)cc3)CN12

21%
37%
-43%
